test system: Rattus norvegicus; test: Tested for total duration time(BP) after peroral administration of 30 mg/kg of dose in high renin rat; assay type: functional; conditions: route oral
Please respond with reported Duration for every item in the list.
Provide only the numeric value, understood in h.

Let me know recorded Duration for "CCOC(=O)/C=C1\CC(C)(C)CC(=O)N1Cc1ccc(-c2ccccc2-c2nn[nH]n2)cc1" , thanks.
5

Provide Duration value for the following compound: "CCOC(=O)/C=C1\CC2(CCCCCC2)C(=O)N1Cc1ccc(-c2ccccc2-c2nn[nH]n2)cc1"
23

Answer with reported Duration of CCOC(=O)/C=C1\C2C3CCC(C3)C2C(=O)N1Cc1ccc(-c2ccccc2-c2nn[nH]n2)cc1 (stereo not drawn)
17

Tell me Duration reported for "CCOC(=O)/C=C1\CC2(CCCC2)CC(=O)N1Cc1ccc(-c2ccccc2-c2nn[nH]n2)cc1"
21

Give Duration for the following compound: "CCOC(=O)/C=C1\CC2(CCCC2)C(=O)N1Cc1ccc(-c2ccccc2-c2nn[nH]n2)cc1"
3

Please give the documented Duration of "CCCCc1nc(Cl)c(CO)n1Cc1ccc(-c2ccccc2-c2nnn[nH]2)cc1"
24

Determine from records and report Duration for "CCOC(=O)/C=C1\CC2(CCCCC2)C(=O)N1Cc1ccc(-c2ccccc2-c2nn[nH]n2)cc1"
17
